Target: T1, human GITR-Fc (human, UniProt Q9Y5U5 26-162, conjugated with europium cryptate in the HTRF assays)
T1 construct: also called hGITR-Fc; hGITRFc; not shown: Fc domain of hIgG1
T1 sequence: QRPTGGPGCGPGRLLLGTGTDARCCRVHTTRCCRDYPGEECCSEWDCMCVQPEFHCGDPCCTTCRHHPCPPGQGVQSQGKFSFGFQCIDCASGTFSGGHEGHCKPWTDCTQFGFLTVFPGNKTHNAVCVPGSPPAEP
Test: HTRF competition; competitor GITRL-HA on GITR-Fc
Listed here are binders together with their documented pIC50.
In plain terms, pIC50 is the concentration in mol/L turned into minus its base-10 logarithm.

Example entries and their recorded answers appear below.
| BINDER | pIC50 |
| --- | --- |
| hexameric GITRL FP (Matrilin 1 variant) (Fc fusion, not shown: a dimerising Fc or GST; small tags and cut ends) chain (part 1 of 2): CACESLVKFQAKVEGLIQALTRKLEAVSKRIAILENTVV chain (part 2 of 2): LQLETAKEPCMAKFGPLPSKWQMASSEPPCVNKVSDWKLEILQNGLYLIYGQVAPNANYNDVAPFEVRLYKNKDMIQTLTNKSKIQNVGGTYELHVGDTIDLIFNSEHQVLKNNTYWGIILLANPQFIS | 9.08 |
| hexameric GITRL FP (DMPK variant) (Fc fusion, not shown: a dimerising Fc or GST; small tags and cut ends) chain (part 1 of 2): IAEIEVTIRELQEAIEEEVLTRQSLSREIEAIRTDIQNIASQLREIEARIRDLEAHVRQLQERMELLQAE chain (part 2 of 2): LQLETAKEPCMAKFGPLPSKWQMASSEPPCVNKVSDWKLEILQNGLYLIYGQVAPNANYNDVAPFEVRLYKNKDMIQTLTNKSKIQNVGGTYELHVGDTIDLIFNSEHQVLKNNTYWGIILLANPQFIS | 8.61 |

## Task In one line, give reported pIC50 of the entry hexameric GITRL FP (Coronin 1a variant) (Fc fusion, not shown: a dimerising Fc or GST; small tags and cut ends) chain (part 1 of 2): ISRIEEEIRKINATVQELQKRIDRLEETVQAK chain (part 2 of 2): LQLETAKEPCMAKFGPLPSKWQMASSEPPCVNKVSDWKLEILQNGLYLIYGQVAPNANYNDVAPFEVRLYKNKDMIQTLTNKSKIQNVGGTYELHVGDTIDLIFNSEHQVLKNNTYWGIILLANPQFIS .
## Result 8.84

## Task Check the records and state pIC50 for hexameric GITRL FP (Matrilin 1 wt) (Fc fusion, not shown: a dimerising Fc or GST; small tags and cut ends) chain (part 1 of 2): CACESLVKFQAKVEGLLQALTRKLEAVSKRLAILENTVV chain (part 2 of 2): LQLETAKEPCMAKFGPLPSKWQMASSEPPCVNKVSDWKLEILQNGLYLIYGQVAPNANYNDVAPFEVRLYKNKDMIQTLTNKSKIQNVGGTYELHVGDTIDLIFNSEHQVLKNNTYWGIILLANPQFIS
## Result 8.87

## Task State, in one line, measured pIC50 of hexameric GITRL FP (DMPK wt) (Fc fusion, not shown: a dimerising Fc or GST; small tags and cut ends) chain (part 1 of 2): EAEAEVTLRELQEALEEEVLTRQSLSREMEAIRTDNQNFASQLREAEARNRDLEAHVRQLQERMELLQAE chain (part 2 of 2): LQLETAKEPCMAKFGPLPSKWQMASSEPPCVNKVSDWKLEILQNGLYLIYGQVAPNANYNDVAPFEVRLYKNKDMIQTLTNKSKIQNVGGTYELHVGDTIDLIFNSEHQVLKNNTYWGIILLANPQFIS
## Result 8.56

## Task Tell me its pIC50 given hexameric GITRL FP (Langerin wt) (Fc fusion, not shown: a dimerising Fc or GST; small tags and cut ends) chain (part 1 of 2): ASALNTKIRALQGSLENMSKLLKRQNDILQVVS chain (part 2 of 2): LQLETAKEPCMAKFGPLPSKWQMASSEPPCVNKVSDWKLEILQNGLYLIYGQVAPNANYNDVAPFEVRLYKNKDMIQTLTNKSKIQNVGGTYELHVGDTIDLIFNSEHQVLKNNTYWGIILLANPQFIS as the entry.
## Result 8.09
